Data credit: patent US12590062B2

target: PD-1/PD-L1 interaction (Homo sapiens, UniProt Q9NZQ7); construct: expressed in transfected cells; host or cells: CHO cells (aAPC-PD-L1) co-cultured with Jurkat cells overexpressing PD-1 and an NFAT-luciferase reporter; test: PD-1/PD-L1 NFAT reporter co-culture assay; type: cell-based; details: Jurkat PD-1 NFAT-luciferase cells co-cultured with aAPC-PD-L1 CHO cells, 6 hrs at 37° C.; read-out: EC50 NFAT Luciferase
Sequence (Q9NZQ7 19-290): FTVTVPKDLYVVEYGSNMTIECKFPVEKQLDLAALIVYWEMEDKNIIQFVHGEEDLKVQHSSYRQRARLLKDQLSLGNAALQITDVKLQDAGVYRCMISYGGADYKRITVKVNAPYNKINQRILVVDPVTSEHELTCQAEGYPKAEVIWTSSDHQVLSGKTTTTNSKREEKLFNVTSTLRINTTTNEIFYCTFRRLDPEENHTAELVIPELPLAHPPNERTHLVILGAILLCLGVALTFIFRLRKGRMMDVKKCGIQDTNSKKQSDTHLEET
measure: EC50 (nM)

Before answering, review these 2 worked examples.
{"compound": "COc1nc(-c2cccc(-c3cccc4c3CC[C@@H]4Oc3nc(OC)c(CN4CCC[C@H](C(=O)O)[C@@H]4C)cc3Cl)c2Cl)ccc1CNC[C@@H]1CCC(=O)N1 [Example 764]", "EC50 [nM]": 23}
{"compound": "CS(=O)(=O)c1cncc(COc2nc(O[C@H]3CCc4c(-c5cccc(-c6ccc(CN)cc6)c5Cl)cccc43)c(Cl)cc2CNC[C@@H](O)CC(=O)O)c1 [Example 659]", "EC50 [nM]": 51}

(A) C[C@@](CO)(NCc1cc(Cl)c(OCc2cccc(-c3cccc(-c4ccc(OCCNCCO)cc4)c3Cl)c2Cl)nc1OCc1cc(C#N)cc(C#N)c1)C(=O)O [Example 352]
(B) COc1nc(OCc2cccc(-c3cccc(COc4nc(OC)c(CN5CCC5C(N)=O)cc4Cl)c3C)c2C)c(Cl)cc1CN1CCC1C(N)=O (centres unmarked) [Example 65]
Consider A and B . Which of these has its EC50 at a higher number? State your choice using its label.
B
(B: 3350 nM, A: 105 nM)

(a) Cc1c(COc2nc(OCc3cnn(C)c3)c(CNC[C@@H](O)CC(=O)O)cc2Cl)cccc1-c1cccc(COc2nc(OCc3cnn(C)c3)c(CNC[C@@H](O)CC(=O)O)cc2Cl)c1C [Example 136]
(b) COc1nc(-c2cccc(-c3cccc(N4Cc5cc(CNC[C@@H]6CCC(=O)N6)ccc5C4=O)c3Cl)c2Cl)ccc1CNC[C@@H]1CCC(=O)N1 [Example 632]
Hello, I am sorting some records. Could you say if a or b has the smaller EC50 value? // respond with label for picked entry
a
(a: 529 nM, b: 2980 nM)

(a) CN1CCCC1c1ccc(-c2cccc(-c3cccc4c3CC[C@@H]4Oc3nc(OCc4cncc(C#N)c4)c(CNC(C)(C)C(=O)O)cc3Cl)c2Cl)cc1 (some centres unmarked) [Example 672]
(b) COc1nc(-c2cccc(-c3cccc(OCc4ccc(CNC[C@@H]5CCC(=O)N5)cc4)c3Cl)c2Cl)ccc1CNC[C@@H]1CCC(=O)N1 [Example 426]
(c) Cc1c(COc2cc(OCc3cncc(C#N)c3)c(CN3C[C@@H](O)C[C@H]3C(=O)O)cc2Cl)cccc1-c1cccc(-c2ccc(OCCNCCO)cc2)c1C [Example 510]
(d) Cc1c(COc2nc(OCc3cnnn3Cc3ccccc3)c(CNC[C@@H](O)CC(=O)O)cc2Br)cccc1-c1cccc(COc2nc(OCc3cnnn3Cc3ccccc3)c(CNC[C@@H](O)CC(=O)O)cc2Br)c1C [Example 139]
Please produce an ascending ranking of these compounds based on EC50. Response field: labels, in requested order.
c, a, b, d

---

target: PD-L1 (Homo sapiens); construct: determine if they can specifically dimerize the extracellular domains of PD-L1; assay: PD-L1/PD-L1 dimerization biochemical protein-protein interaction assay (ALPHA); format: binding; settings: compound-induced PD-L1 dimerization, head prints '1 nM' (0.5 nM His-tagged PD-L1 and 0.5 nM FLAG-tagged PD-L1), read-out: AC50 PDL1 Dimer Alpha 1 nM
Sequence (Q9NZQ7 19-238 limits assumed): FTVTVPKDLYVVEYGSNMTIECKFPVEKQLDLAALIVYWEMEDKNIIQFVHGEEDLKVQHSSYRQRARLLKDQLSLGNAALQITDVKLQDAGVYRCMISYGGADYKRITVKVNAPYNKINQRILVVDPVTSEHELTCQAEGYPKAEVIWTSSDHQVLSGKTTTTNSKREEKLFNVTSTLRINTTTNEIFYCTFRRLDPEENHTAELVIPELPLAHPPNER
Sequence (Q9NZQ7 19-238 limits assumed): as above
measure: AC50 (nM)

Worked set:
{"given smiles": "COc1nc(-c2cccc(-c3cccc(COc4nc(OCc5cc(C#N)cc(C#N)c5)c(CNC[C@@H](O)CC(=O)O)cc4Cl)c3Cl)c2Cl)ccc1CNC[C@@H]1CCC(=O)N1", "AC50 / nM": 44.3}
{"given smiles": "COc1nc(O[C@H]2CCc3c(-c4cccc(-c5ccc(C6=NCCN6)c(OC)n5)c4Cl)cccc32)c(Br)cc1CNC[C@@H]1CCC(=O)N1", "AC50 / nM": 113}
{"given smiles": "Cc1c(COc2nc(OCCc3cncnc3)c(CNCC(=O)O)cc2Cl)cccc1-c1cccc(COc2nc(OCCc3cncnc3)c(CNCC(=O)O)cc2Cl)c1C", "AC50 / nM": 282}

(P) Cc1c(COc2nc(OCc3cncc(C#N)c3)c(CNC[C@@H](O)CC(=O)O)cc2Br)cccc1-c1cccc(COc2nc(OCc3cncc(C#N)c3)c(CNC[C@@H](O)CC(=O)O)cc2Br)c1C
(Q) Cc1c(COc2cc(OCc3cncc(C#N)c3)c(CN[C@@](C)(CO)C(=O)O)cc2Cl)cccc1-c1cccc(-c2ccc(C3=NCCN3)cn2)c1C
Compare the recorded AC50 of P and Q ; state which is larger. Reply briefly: the label of your chosen item.
P
(P: 367 nM, Q: 50.1 nM)
